# credit: patent US20230227453A1

Measured IC50 by item
molecular target: 5-HT2C edited (accession number AAF35842.1) (Homo sapiens, UniProt P28335, I156V/I160V/N158S); experiment: biochemical
Sequence (P28335 whole entry I156V/N158S/I160V, looked up): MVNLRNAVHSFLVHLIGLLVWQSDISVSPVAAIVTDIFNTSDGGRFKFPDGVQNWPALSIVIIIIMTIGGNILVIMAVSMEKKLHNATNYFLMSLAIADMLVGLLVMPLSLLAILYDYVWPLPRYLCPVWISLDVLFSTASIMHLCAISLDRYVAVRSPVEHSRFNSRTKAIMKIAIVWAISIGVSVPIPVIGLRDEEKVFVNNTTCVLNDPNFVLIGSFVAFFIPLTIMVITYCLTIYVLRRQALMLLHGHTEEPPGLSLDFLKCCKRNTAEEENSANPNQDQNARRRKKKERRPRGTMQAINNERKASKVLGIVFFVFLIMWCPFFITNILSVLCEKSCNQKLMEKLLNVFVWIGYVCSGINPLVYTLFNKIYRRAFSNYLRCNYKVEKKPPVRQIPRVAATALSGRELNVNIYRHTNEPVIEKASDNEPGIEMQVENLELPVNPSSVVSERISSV

The following compounds have reported results that may help.
Exam item: Fill in: IC50 of "CN1CCc2c(n(C)c3ncccc23)CC1" is ___
Marked response: 0.01 to 0.1 µM

Exam item: Request: "COc1ccc2c3c(n(C)c2n1)CCN(C)CC3"
Marked response: 0.101 to 1 µM

Exam item: Request: "Cc1ccc2c3c([nH]c2n1)CCN(C)CC3"
Marked response: 0.101 to 1 µM

Continuing:
Exam item: Fill in: IC50 of "Clc1cnc2[nH]c3c(c2c1)CCNCC3" is ___
Marked response: 0.01 to 0.1 µM

Exam item: Request: "Cn1c2c(c3cc(Cl)cnc31)CCNCC2"
Marked response: 0.01 to 0.1 µM

Exam item: Request: "Cc1ccc2c3c([nH]c2n1)CCNCC3"
Marked response: 0.101 to 1 µM
